Target: human Nav1.1 (Homo sapiens, UniProt P35498)
Construct: host or cells: HEK293
Test: Amplification of Nav1.1-derived voltage-gated sodium current (Nav1.1 current), automated patch clamp (Test 1)
Assay type: cell-based
Settings: concentration for evaluation 1 μM; HEK293 stably expressing human Nav1.1
Label scheme, based on Nav1.1 current amplification rate (%): lower band = under 50%, central band = from 50% up to 90%, upper band = 90% and over

compound	group
O=C(Cn1ncc2cnc(C3=CCC(F)(F)CC3)nc21)Nc1ccc2cncnc2c1	central band
CN(c1ncc2cnn(CC(=O)Nc3ccn4ncnc4c3)c2n1)C1CC2(CC2)C1	upper band
O=C(Cn1ncc2cnc(N3CCC4C(C3)C4(F)F)nc21)Nc1ccc2ncnn2c1 (centres unmarked)	lower band
CC(C)c1ccc(NC(=O)Cn2ncc3cnc(N4CCC5(CC5)C(F)(F)C4)nc32)cn1	central band
CN(c1ncc2cnn(CC(=O)Nc3ccn4ncnc4c3)c2n1)C1CCC(F)(F)C1 (centres unmarked)	central band
CN(CC1CC(F)(F)C1)c1ncc2cnn(CC(=O)Nc3ccn4ncnc4c3)c2n1	lower band
CC1CC=C(c2cnc3cnn(CC(=O)Nc4ccn5ncnc5c4)c3n2)CC1 (centres unmarked)	upper band
CN(c1ncc2cnn(CC(=O)Nc3ccc4ncnn4c3)c2n1)C1CCC1	lower band
CC1CCN(c2ccc3cnn(CC(=O)Nc4ccc5ncnn5c4)c3n2)CC1	lower band
O=C(Cn1ncc2ccc(-c3ccc(F)cc3)nc21)Nc1ccn2ccnc2c1	lower band
CC1CCN(c2ccc3cnn(CC(=O)Nc4ccn5ncnc5c4)c3n2)CC1	central band
CN(c1ncc2cnn(CC(=O)Nc3ccn4ncnc4c3)c2n1)C1CCC1	central band
CN(c1ncc2cnn(CC(=O)Nc3ccc4ncnn4c3)c2n1)C1CCCC1	central band
CN(CC1(C)CC1)c1ncc2cnn(CC(=O)Nc3ccn4ncnc4c3)c2n1	upper band
CC1CCN(c2ccc3cnn(CC(=O)Nc4ccc5cncnc5c4)c3n2)CC1	upper band
CC(C)CN(C)c1ccc2cnn(CC(=O)Nc3ccn4ncnc4c3)c2n1	central band
